experiment: Cytotoxicity against mouse NIH/3T3 cells after 5 days by CellTiter-Glo luminescent cell viability assay; type: cell-based, NIH3T3

{"substance smiles": "CC(C)OC(=O)Nc1cnc2nc(-c3cc(NC(=O)c4ccco4)ccc3Cl)nn2c1", "CC50 at 120 h [µM]": 9}

====

experiment: Intrinsic clearance in mouse liver microsomes assessed per mg protein by LC-MS analysis; assay type: ADME, Microsome; settings: read-out: CLH
# key: entry, value: microsomal CLint

{"molecule": "Cc1cc(Nc2ccc(C(F)(F)F)nc2)n2nc(C(C)(F)F)nc2n1", "units": "µL/min/mg", "qualifying sign": "=", "microsomal CLint": 5.1}
{"molecule": "Cc1cc(Nc2cc(F)c(C(F)(F)F)c(F)c2)n2ncnc2n1", "units": "µL/min/mg", "qualifying sign": "<", "microsomal CLint": 6}
{"molecule": "Cc1cc(Nc2ccc(S(F)(F)(F)(F)F)cc2)n2nc(C(C)(F)F)nc2n1 [DSM-265]", "units": "µL/min/mg", "qualifying sign": "=", "microsomal CLint": 10.1}
